log10 of IC50 overview
- TARGET: B2 bradykinin receptor (Cavia porcellus, UniProt O70526)
- Sequence (O70526 whole entry): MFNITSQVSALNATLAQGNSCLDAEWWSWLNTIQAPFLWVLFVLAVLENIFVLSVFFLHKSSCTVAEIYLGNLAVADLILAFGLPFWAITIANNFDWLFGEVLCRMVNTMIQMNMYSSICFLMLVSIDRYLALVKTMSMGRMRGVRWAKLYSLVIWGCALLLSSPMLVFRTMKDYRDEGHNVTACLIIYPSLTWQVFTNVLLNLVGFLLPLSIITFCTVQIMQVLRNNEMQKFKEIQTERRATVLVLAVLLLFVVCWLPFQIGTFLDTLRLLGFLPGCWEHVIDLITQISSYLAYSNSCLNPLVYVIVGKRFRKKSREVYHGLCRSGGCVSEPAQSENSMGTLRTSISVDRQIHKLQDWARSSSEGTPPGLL
- MEASUREMENT_PROTOCOL: Concentration required to inhibit specific binding of [ 3H]BK (0.06 nM) to Bradykinin receptor B2 in guinea pig ileum membrane preparations by 50%.
MEASURE: log10 of IC50 (log10 of the value in nM)

COMPOUND	log10 of IC50
CNC(=O)c1ccc(/C=C/C(=O)NCC(=O)N(C)c2ccc(C)c(COc3cccc4c3nc(OC)n4C)c2C)cc1	0.20
COc1nc2c(OCc3c(Cl)ccc(N(C)C(=O)CNC(=O)/C=C/c4ccc(NC(C)=O)nc4)c3Cl)cccc2n1C	-0.19
Cc1ccc2cccc(OCc3c(Cl)ccc(N(C)C(=O)CNC(=O)/C=C/c4cccc(C(=O)N(C)C)c4)c3Cl)c2n1	0.04
CNC(=O)c1ccc(/C=C/C(=O)NCC(=O)N(C)c2ccc(C)c(COc3cccc4c3nc(COC)n4C)c2C)cc1	3.00
CNC(=O)c1ccc(/C=C/C(=O)NCC(=O)N(C)c2ccc(Cl)c(COc3cccnc3-n3c(C)ccc3C)c2Cl)cc1	2.54
CNC(=O)c1ccc(/C=C/C(=O)NCC(=O)N(C)c2ccc(C)c(COc3cccc4c3nc(SC)n4C)c2C)cc1	0.98
CNC(=O)c1ccc(/C=C/C(=O)NCC(=O)N(C)c2ccc(Cl)c(COc3cccc4oc(C)nc34)c2Cl)cc1	2.58
Cc1ccc2cccc(OCc3c(Cl)ccc(N(C)C(=O)CNC(=O)/C=C/c4ccc(NC(=O)c5ccncc5)nc4)c3Cl)c2n1	0.52
CNC(=O)c1ccc(/C=C/C(=O)NCC(=O)N(C)c2ccc(C)c(COc3cccc4ncc(C)nc34)c2C)cn1	1.26
CC(=O)Nc1ccc(/C=C/C(=O)NCC(=O)N(C)c2ccc(Cl)c(COc3cccc4ccc(C)nc34)c2Cl)cn1 [FR-173657]	-0.34
